- System: MCF7
- experiment summary: Cytotoxicity against human MCF7 cells assessed as reduction in cell viability measured after 72 hrs by MTT assay
- Type: cell-based
- assay setup: MCF7, 72 h
readout: IC50 (µM)
Write down the numeric answer in µM and omit the unit.

Would you please look over these solved cases?
* COc1ccc(C)c2c1CC1(C(=O)N(C)C(=O)N1C)C1=C2C(=O)c2[nH]cc(CCNC(=O)c3ccco3)c2C1=O (configuration not stated) | 6.91
* COc1ccc(C)c2c1CC1(C(=O)N(C)C(=O)N1C)C1=C2C(=O)c2[nH]cc(CCNCc3ccccc3Br)c2C1=O (configuration not stated) | 1.52

*Q* Fill in: IC50 of COc1ccc(C)c2c1CC1(C(=O)N(C)C(=O)N1C)C1=C2C(=O)c2[nH]cc(CCNC(=O)c3ccccc3)c2C1=O (configuration not stated) is ___
*A* 5.35
